Hey, just so you know, these numbers are from patent US20250355001A1.

Study target: T1, full length human tau protein 2N4R (hT40) (human, UniProt P10636 1-758)
T1 construct: recombinant; also called T441
T1 sequence (P10636 other isoform, or with tags, fused parts or gaps limits assumed): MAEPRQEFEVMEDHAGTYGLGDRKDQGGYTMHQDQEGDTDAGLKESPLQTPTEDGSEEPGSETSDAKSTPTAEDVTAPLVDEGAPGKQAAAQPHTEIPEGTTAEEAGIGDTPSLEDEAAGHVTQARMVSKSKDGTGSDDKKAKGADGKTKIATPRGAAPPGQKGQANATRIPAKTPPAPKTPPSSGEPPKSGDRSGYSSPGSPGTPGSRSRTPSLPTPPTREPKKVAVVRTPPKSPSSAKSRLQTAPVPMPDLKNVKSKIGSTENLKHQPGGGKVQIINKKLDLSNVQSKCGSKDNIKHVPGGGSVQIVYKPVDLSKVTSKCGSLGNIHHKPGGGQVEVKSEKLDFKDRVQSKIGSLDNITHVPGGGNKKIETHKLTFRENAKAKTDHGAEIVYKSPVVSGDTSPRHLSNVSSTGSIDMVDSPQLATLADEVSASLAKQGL
Experiment: SPR, scAb captured, tau analyte
The following binders are listed with their measured kon values.
Readout: kon

- Binder: "3aG3 scAb (scFv, not shown: small tags and cut ends, scAb) scFv: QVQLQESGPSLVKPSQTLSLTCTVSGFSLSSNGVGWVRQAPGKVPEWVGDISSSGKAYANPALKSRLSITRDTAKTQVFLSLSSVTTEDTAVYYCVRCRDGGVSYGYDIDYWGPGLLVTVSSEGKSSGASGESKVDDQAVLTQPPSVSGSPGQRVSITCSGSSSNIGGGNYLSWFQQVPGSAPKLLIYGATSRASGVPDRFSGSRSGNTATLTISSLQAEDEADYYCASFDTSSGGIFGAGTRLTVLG"
  Readout: "kon"
  Test value: "62900 M⁻¹ s⁻¹"
- Binder: "S1E12 scAb (scFv, not shown: small tags and cut ends, scAb) scFv: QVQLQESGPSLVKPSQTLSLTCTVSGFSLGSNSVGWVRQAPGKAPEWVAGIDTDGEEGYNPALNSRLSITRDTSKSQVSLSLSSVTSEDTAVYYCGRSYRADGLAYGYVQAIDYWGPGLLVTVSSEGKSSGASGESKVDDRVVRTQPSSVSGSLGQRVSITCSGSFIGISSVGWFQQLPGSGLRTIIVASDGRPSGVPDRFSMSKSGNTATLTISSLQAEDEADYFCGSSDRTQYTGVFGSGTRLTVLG"
  Readout: "kon"
  Test value: "385000 M⁻¹ s⁻¹"
- Binder: "NS2A1 scAb (scFv, not shown: small tags and cut ends, scAb) scFv: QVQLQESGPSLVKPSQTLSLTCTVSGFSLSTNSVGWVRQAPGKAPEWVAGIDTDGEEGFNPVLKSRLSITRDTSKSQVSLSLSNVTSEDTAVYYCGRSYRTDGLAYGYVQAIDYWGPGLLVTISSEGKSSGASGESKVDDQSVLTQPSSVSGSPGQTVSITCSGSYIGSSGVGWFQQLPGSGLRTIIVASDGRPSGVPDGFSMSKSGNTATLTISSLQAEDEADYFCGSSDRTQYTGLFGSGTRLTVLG"
  Readout: "kon"
  Test value: "252000 M⁻¹ s⁻¹"
